test system: MDA-MB-231 breast; test: NCI tumour cell line growth inhibition, 48 h
value type: log10 TGI (log10 of the value in µM)
Scale type: logarithmic (base 10). Underlying TGI unit: µM.

Example results:
(Q) I'm curious: which log10 TGI was measured for COc1cc(-c2nc(-c3nnc(-c4ccc(F)c(Cl)c4)o3)c3ccccn23)cc(OC)c1OC tested on MDA-MB-231 breast?
(A) 1.17

(Q) Give the reported log10 TGI for CCOC(=O)c1ccc(NC(=O)O/N=C(/Cl)C(C)C)cc1 (system: MDA-MB-231 breast).
(A) 1.60

(Q) Form: Entry = C=CC(=O)NCCOc1cccc(Nc2cc(NCCCNC(=O)C3CCC3)c(Br)cn2)c1 | System = MDA-MB-231 breast | log10 TGI = ____
(A) 0.17

(Q) Fill in the recorded log10 TGI for this compound, with MDA-MB-231 breast as test system: NC(=O)c1ccc2nc(-c3ccc(C4(N)CCC4)cc3)c(-c3ccccc3)n2n1
(A) 1.51

Go through the items and report each one's log10 TGI.
1. Cc1ccc(Nc2[nH]c(C(=O)c3ccc(Cl)cc3)c(N)c2C(=S)Nc2ccccc2)nc1
2. CCc1cccc(CC)c1Nc1nc2c(s1)C(=O)c1ccccc1C2=O
3. C[C@H](C(=O)N[C@@H](Cc1ccc(-c2ccccc2)cc1)C(=O)NC1CC(C)(C)N(C)C(C)(C)C1)c1ccc(-c2ccccc2)c(F)c1
4. COc1cc(OC)cc(-c2ccc(-c3ccc(C(=N)N)s3)s2)c1
5. Nc1nc(N)c2ncn(-c3ccc(Cl)c(Cl)c3)c2n1
6. CN(C)Cc1cc(C(=O)/C=C/c2ccc(Br)cc2)cc(CN(C)C)c1O

(A)
1. 1.81
2. 1.62
3. 0.48
4. 0.42
5. 1.89
6. 1.08

Count: 5. Required value per item: log10 TGI.
1. O=C(C[C@@]1(O)C(=O)Nc2c(Cl)ccc(Cl)c21)c1ccc(C2CC2)cc1
2. O=C1c2ccc3c4c(ccc(c24)C(=O)N1CCCNCc1ccccc1)C(=O)N(CCCNCc1ccccc1)C3=O
3. Cc1cc(C)c(S(=O)(=O)N(CCCCCCN)OCCCN)c(C)c1
4. COc1cc(CNc2nc3cc(N)cc(N)c3nc2-c2ccccc2)cc(OC)c1OC
5. CN(CCCCN1CCCC1)CCCCN(C)C(=O)Cc1ccc(Cl)c(Cl)c1

(A)
[1.18, -0.04, 1.39, 1.18, 1.37]

Give log10 TGI for all compounds that follow.
1. O=c1oc2ccccc2cc1-c1csc(Nc2cc(Cl)cc(Cl)c2)n1
2. COc1cc(-c2nc3ccccc3[nH]2)ccc1OCC(=O)N=Nc1c(O)[nH]c2ccc(Cl)cc12
3. CCOC(=O)/C(=C/c1ccccc1)C(=O)c1ccccc1
4. C[C@@H]1[C@H]2[C@H](C=C3[C@@H]4CC[C@H]5Cc6nc7c(nc6C[C@]5(C)[C@H]4C[C@@H](O)[C@@]32C)C[C@@H]2CC[C@H]3C4=C[C@@H]5O[C@@]6(CC[C@](C)(CO)O6)[C@@H](C)[C@@]5(O)[C@@]4(C)[C@H](O)C[C@@H]3[C@@]2(C)C7)O[C@]12CCC(C)(C)O2
5. [C-]#[O+].[C-]#[O+].[Ir].[O-]c1ccc2ccccc2c1N=Nc1ccccc1
6. FC(F)(F)c1[nH]ncc1-c1nc2c(N3CCCCC3)cc3[nH]ncc3c2c2c1CCCC2

(A)
1. 1.80
2. 0.27
3. 1.08
4. 0.42
5. 1.61
6. 0.49

Please give log10 TGI for each item listed below.
1. C=C1C(=O)OC2/C=C(\C)C(=O)CC3OC(C)(C)OC3(C)CC(OC(=O)/C(C)=C/C)C12 (stereo not given)
2. COc1cccc2c1nc1cccc(OC)c1[n+]2[O-]

(A)
1. 1.76
2. 1.62
